- TEST_TARGET: EGFR L858R/T790M/C797S (Homo sapiens, UniProt P00533, C797S/L858R/T790M)
- Sequence (P00533 25-1210 T790M/C797S/L858R): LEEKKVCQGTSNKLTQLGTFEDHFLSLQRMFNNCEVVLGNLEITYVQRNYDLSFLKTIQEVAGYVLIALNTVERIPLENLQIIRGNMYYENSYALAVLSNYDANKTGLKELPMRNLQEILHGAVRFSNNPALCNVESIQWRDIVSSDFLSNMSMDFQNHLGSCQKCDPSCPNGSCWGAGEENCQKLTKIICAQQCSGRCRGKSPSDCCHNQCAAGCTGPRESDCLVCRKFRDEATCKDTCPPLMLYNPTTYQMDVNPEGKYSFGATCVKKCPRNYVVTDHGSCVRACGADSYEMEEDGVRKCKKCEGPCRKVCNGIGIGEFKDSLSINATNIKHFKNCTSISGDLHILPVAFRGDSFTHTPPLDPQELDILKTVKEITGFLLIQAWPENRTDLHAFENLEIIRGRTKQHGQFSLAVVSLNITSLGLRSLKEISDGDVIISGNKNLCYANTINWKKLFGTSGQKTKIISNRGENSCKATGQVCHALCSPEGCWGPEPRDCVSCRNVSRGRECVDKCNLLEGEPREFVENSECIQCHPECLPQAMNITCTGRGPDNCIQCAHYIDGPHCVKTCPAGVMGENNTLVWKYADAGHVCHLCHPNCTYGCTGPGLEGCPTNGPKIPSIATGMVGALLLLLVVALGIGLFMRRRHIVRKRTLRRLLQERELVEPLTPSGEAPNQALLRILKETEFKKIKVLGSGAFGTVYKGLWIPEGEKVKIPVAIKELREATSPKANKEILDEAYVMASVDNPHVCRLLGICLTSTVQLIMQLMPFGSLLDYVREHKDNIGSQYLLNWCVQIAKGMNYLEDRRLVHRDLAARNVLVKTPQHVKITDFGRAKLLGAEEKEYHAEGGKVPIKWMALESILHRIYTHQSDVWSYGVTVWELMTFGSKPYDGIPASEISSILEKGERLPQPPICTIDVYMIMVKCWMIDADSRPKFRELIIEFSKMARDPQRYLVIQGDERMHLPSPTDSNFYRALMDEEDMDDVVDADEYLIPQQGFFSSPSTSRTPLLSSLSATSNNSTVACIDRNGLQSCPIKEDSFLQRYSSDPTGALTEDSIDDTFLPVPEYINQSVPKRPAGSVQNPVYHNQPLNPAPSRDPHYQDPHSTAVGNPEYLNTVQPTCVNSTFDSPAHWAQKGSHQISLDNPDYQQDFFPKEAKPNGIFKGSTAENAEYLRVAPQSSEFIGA
- ASSAY_COMMENT: Biochemical EGFR kinase inhibition assay (Lance Ultra TR-FRET), triple mutant L858R/T790M/C797S
- CONDITION_SUMMARY: IC50 L858R/T790M/C797S (nM), 100 μM ATP
EXPERIMENTAL_READOUT: IC50

// worked examples, IC50 included
query: Note IC50 for the compound shown: O=S(=O)(C1CC1)n1cc(-c2nccc(Nc3cc(N4CCC[C@H](O)C4)c(C#Cc4ccsc4)cn3)n2)cn1 [Example 228]
result: 21.8 nM

query: Note IC50 for the compound shown: Cn1cc(C#Cc2cnc(Nc3ccnc(-c4cnn(S(=O)(=O)C5CC5)c4)n3)cc2N2CCC(N3CC(F)(F)C3)CC2)cn1 [Example 128]
result: 4.8 nM

query: Note IC50 for the compound shown: CC1OCCC1C#Cc1cnc(Nc2ccnc(-c3cnn(S(=O)(=O)C4CC4)c3)n2)cc1NC1CCC(CO)CC1 (stereo not drawn) [Example 430]
result: 0.9 nM

Others:
query: Note IC50 for the compound shown: O=S(=O)(C1CC1)n1cc(-c2nccc(Nc3cc(N[C@H]4CC[C@@H](NCCF)CC4)c(C#Cc4cnn(CC(F)(F)F)c4)cn3)n2)cn1 [Example 345]
result: 2.2 nM

query: Note IC50 for the compound shown: CC1(CO)CCN(c2cc(Nc3ccnc(-c4cnn(S(=O)(=O)C5CC5)c4)n3)ncc2C#Cc2cnc(C(F)(F)F)s2)CC1 [Example 292]
result: 4.2 nM

query: Note IC50 for the compound shown: Cn1cc(C#Cc2cnc(Nc3ccnc(-c4cnn(S(=O)(=O)C5CC5)c4)n3)cc2N2CCC(O)CC2)c(C(F)(F)F)n1 [Example 89]
result: 19.6 nM
